// reported kon per item
Target: T1, mouse PCSK9 (mouse, UniProt Q80W65 35-694, limits assumed)
T1 construct: also called mPCSK9; msPCK9
T1 sequence (Q80W65 35-694 limits assumed): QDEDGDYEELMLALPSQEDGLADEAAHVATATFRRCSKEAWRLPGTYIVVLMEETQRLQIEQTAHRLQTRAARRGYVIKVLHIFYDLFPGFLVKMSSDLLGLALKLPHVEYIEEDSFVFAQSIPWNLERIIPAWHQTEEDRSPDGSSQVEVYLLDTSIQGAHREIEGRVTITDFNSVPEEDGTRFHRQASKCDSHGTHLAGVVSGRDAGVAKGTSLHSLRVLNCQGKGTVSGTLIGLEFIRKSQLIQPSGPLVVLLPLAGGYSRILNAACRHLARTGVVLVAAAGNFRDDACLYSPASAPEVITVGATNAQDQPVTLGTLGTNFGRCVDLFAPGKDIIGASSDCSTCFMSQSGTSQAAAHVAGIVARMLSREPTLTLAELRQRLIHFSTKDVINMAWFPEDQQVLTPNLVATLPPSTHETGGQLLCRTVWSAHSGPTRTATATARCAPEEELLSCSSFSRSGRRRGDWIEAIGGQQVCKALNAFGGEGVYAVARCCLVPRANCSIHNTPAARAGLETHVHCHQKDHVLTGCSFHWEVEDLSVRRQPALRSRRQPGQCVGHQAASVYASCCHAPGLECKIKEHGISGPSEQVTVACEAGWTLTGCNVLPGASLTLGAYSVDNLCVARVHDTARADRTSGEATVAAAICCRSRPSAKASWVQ
Assay: SPR Biacore 3000, captured IgG, mPCSK9 injected, pH 7.4
// note: answer is a bare numeric in M⁻¹ s⁻¹

# annotated cases, reported kon shown
- binder: "5L1721H23_6L3 (antibody, V domains shown, Tested as full-length IgG; also called heavy UC-H5H23, light UC-H5L1721-6L3) VH: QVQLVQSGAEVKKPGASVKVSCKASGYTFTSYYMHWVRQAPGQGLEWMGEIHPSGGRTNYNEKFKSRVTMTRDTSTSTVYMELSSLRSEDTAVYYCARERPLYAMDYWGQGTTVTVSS VL: DIQMTQSPSSLSASVGDRVTITCKASQDVHTAVAWYQQKPGKAPKLLIYHASYRYTGVPSRFSGSGSGTDFTFTISSLQPEDIATYYCQQRYSLWRTFGQGTKLEIK"
  readout name: "kon"
  uom: "M⁻¹ s⁻¹"
  reported: 47500
- binder: "6L1721 (antibody, V domains shown, L1L3-based mutant; Tested as full-length IgG) VH: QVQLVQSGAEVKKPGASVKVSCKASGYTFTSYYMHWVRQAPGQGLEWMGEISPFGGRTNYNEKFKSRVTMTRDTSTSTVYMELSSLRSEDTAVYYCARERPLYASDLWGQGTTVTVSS VL: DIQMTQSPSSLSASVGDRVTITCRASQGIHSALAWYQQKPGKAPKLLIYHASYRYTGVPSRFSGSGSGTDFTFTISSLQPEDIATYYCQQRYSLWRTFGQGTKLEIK"
  readout name: "kon"
  uom: "M⁻¹ s⁻¹"
  reported: 88000

Next item in the queue.
IN: // kon lookup, key: 6L21H2335 (antibody, V domains shown) VH: QVQLVQSGAEVKKPGASVKVSCKASGYTFTSYYMHWVRQAPGQGLEWMGEIHPFGGRTNYNEKFKSRVTMTRDTSTSTVYMELSSLRSEDTAVYYCARERPLHASDLWGQGTTVTVSS VL: DIQMTQSPSSLSASVGDRVTITCRASQGISSALAWYQQKPGKAPKLLIYHASYRYTGVPSRFSGSGSGTDFTFTISSLQPEDIATYYCQQRYSLWRTFGQGTKLEIK
OUT: 89900
